The reported measurements were obtained from the Human Domainome abundance scans (Beltran et al. 2025).

Can you tell me abundance fitness for the items I'm about to list?
B1: POU domain, class 2, transcription factor 3, residues 186 to 260; numbered along this chain, Q9UKI9 (parent)
chain: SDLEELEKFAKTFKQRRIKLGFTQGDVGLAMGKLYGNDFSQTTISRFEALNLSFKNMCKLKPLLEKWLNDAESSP

variants of: B1; assay: abundance fitness (aPCA) (normalised: wild type 0, dead -1); higher = more abundant; growth selection in yeast, the domain comes from the species named; conditions: Homo sapiens
Numbers only.

Completed entries (count: 3):
D70A : -0.059
Q41A : 0.025
E5I : -0.022

Lab note: each variant below needs its abundance fitness filled in.
1. P62E
2. D70I
3. S73L
4. F54S

-0.118
-0.02
-0.078
-0.059

Lab note: each variant below needs its abundance fitness filled in.
1. A71G
2. G25D

1. -0.156
2. -0.436

Lab note: each variant below needs its abundance fitness filled in.
1. R46G
2. L60P
3. K55F

1: -0.009; 2: -0.855; 3: -0.031

Lab note: each variant below needs its abundance fitness filled in.
1. F54P
2. N56L
3. L29P

[-0.041, -0.008, -0.47]

Lab note: each variant below needs its abundance fitness filled in.
1. S45A
2. K61N
3. N51I
4. L60E

0.013
-0.628
-0.151
-0.847

Lab note: each variant below needs its abundance fitness filled in.
1. L60K
2. F47W
3. S74F

[-0.106, -0.27, -0.08]
